- target_of_assay: protein-protein interaction between Kras and SOS1 (biotin-tagged human Kras loaded with GDP, His-tagged human SOS1) (Homo sapiens (Human), UniProt P01116, G12D)
- assay_text: Protein-protein interaction inhibition between Kras and SOS1 (KrasG12D-SOS PPI) using AlphaScreen
- Format: biochemical
- measurement_context: AlphaScreen; biotin-tagged human Kras loaded with GDP, His-tagged human SOS1; read-out: KRAS G12D-SOS PPI IC50
Bridge positions count the residues as written; N and C are the ends. Square brackets hold non-standard residues; d marks the D form. Peptide text beside a SMILES is read from it. * marks the point of attachment. hPhe(3-Cl-4-CF3) = N[C@@H](CCc1ccc(C(F)(F)F)c(Cl)c1)C(=O)O; NMeCha = CN[C@@H](CC1CCCCC1)C(=O)O; NMeChg = CN[C@H](C(=O)O)C1CCCCC1; NMeD = CN[C@@H](CC(=O)O)C(=O)O; NMeL = CN[C@@H](CC(C)C)C(=O)O; NMeS = CN[C@@H](CO)C(=O)O; Piperidide = C1CCN(*)CC1; Ac5c = NC1(C(=O)O)CCCC1; Sar = CNCC(=O)O; Propyl = CCC*
measured_attribute: pIC50
Numbers only, as −log10 of the molar value.

Data point: CCCOC[C@H]1C(=O)NC2(CCCC2)C(=O)N(C)[C@@H](C2CCCCC2)C(=O)N(C)[C@H](C(=O)N2CCCCC2)CC(=O)N(C)[C@@H](CC(C)C)C(=O)N[C@@H]([C@@H](C)CC)C(=O)N(C)CC(=O)N(C)CC(=O)N(C)[C@@H](CC2CCCCC2)C(=O)N(C)CC(=O)N[C@@H](CCc2ccc(C(F)(F)F)c(Cl)c2)C(=O)N1C [Compound 692] ([NMeL]I[Sar][Sar][NMeCha][Sar][hPhe(3-Cl-4-CF3)][NMeS](Propyl)[Ac5c][NMeChg][NMeD]-Piperidide; lactam N-11) ; pIC50 = 8.16

====

- target_of_assay: protein-protein interaction between Kras and SOS1 (biotin-tagged human Kras loaded with GDP, His-tagged human SOS1) (Homo sapiens (Human), UniProt P01116, G12D)
- assay_text: Protein-protein interaction inhibition between Kras and SOS1 (KrasG12D-SOS PPI) using AlphaScreen;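 note: kras produced in E. coli, Ni-coupled donor beads and streptavidin acceptor beads, excitation 680 nm with emission detected at 520–620 nm via singlet oxygen transfer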
- Assay type: biochemical
- measurement_context: AlphaScreen; biotin-tagged human Kras loaded with GDP, His-tagged human SOS1; read-out: KRAS G12D-SOS PPI IC50
Bridge positions count the residues as written; N and C are the ends. Square brackets hold non-standard residues; d marks the D form. Peptide text beside a SMILES is read from it. * marks the point of attachment. hPhe(3-Cl-4-CF3) = N[C@@H](CCc1ccc(C(F)(F)F)c(Cl)c1)C(=O)O; hPhe(4-CF3) = N[C@@H](CCc1ccc(C(F)(F)F)cc1)C(=O)O; NMeGly(cPent) = CN[C@H](C(=O)O)C1CCCC1; NMe3Pal = CN[C@@H](Cc1cccnc1)C(=O)O; NMeCha = CN[C@@H](CC1CCCCC1)C(=O)O; NMeD = CN[C@@H](CC(=O)O)C(=O)O; NMeL = CN[C@@H](CC(C)C)C(=O)O; NEtAla = CCN[C@@H](C)C(=O)O; NMeV = CN[C@H](C(=O)O)C(C)C; d(β3hA) = C[C@@H](N)CC(=O)O; NMeA = CN[C@@H](C)C(=O)O; Piperidide = C1CCN(*)CC1; Ac5c = NC1(C(=O)O)CCCC1; Aze = O=C(O)[C@@H]1CCN1; Aib = CC(C)(N)C(=O)O; Sar = CNCC(=O)O
Can you tell me pIC50 for the items I'm about to list?
Numbers only, as −log10 of the molar value.

CC[C@H](C)[C@@H]1NC(=O)[C@H](C)N(C)C(=O)C[C@@H](C)NC(=O)[C@H](C2CCCC2)N(C)C(=O)C2(CCCC2)NC(=O)[C@@H]2CCCN2C(=O)[C@H](CCc2ccc(C(F)(F)F)c(Cl)c2)NC(=O)CN(C)C(=O)[C@H](Cc2cccnc2)N(C)C(=O)[C@@H]2CCCN2C(=O)CN(C)C1=O [Compound 489] (cyclo([Ac5c][NMeGly(cPent)][d(β3hA)][NMeA]I[Sar]P[NMe3Pal][Sar][hPhe(3-Cl-4-CF3)]P)) ... 8.09
CC[C@H](C)[C@@H]1NC(=O)[C@H](C)N(C)C(=O)C[C@@H](C)NC(=O)[C@H](CC(C)C)N(C)C(=O)C(C)(C)NC(=O)[C@H](CC(C)C)N(C)C(=O)[C@H](CCc2ccc(C(F)(F)F)cc2)NC(=O)CN(C)C(=O)[C@H](CC2CCCCC2)N(C)C(=O)CN(C)C(=O)CN(C)C1=O [Compound 219] (cyclo([Aib][NMeL][d(β3hA)][NMeA]I[Sar][Sar][NMeCha][Sar][hPhe(4-CF3)][NMeL])) ... 7.14

Data point: CC[C@H](C)[C@@H]1NC(=O)[C@H](CC(C)C)N(C)C(=O)C[C@@H](C(=O)N2CCCCC2)N(C)C(=O)[C@H](C(C)C)N(C)C(=O)C2(CCCC2)NC(=O)[C@@H]2CCCN2C(=O)[C@H](CCc2ccc(C(F)(F)F)c(Cl)c2)NC(=O)CN(C)C(=O)[C@H](CC2CCCCC2)N(C)C(=O)[C@@H]2CCN2C(=O)[C@H](C)N(CC)C1=O [Compound 443] ([NMeL]I[NEtAla][Aze][NMeCha][Sar][hPhe(3-Cl-4-CF3)]P[Ac5c][NMeV][NMeD]-Piperidide; lactam N-11) ; pIC50 = 7.52
